The following molecules are listed with their measured fraction unbound values.
# experiment summary: Fraction unbound in rat brain
# Type: ADME, tissue-based
// return a plain number; no unit text

molecule smiles	property measured	reported result
Cc1cn(-c2ccc3n(c2=O)CCN(CCOc2ccc(F)cc2C(F)(F)F)C3=O)cn1	fraction unbound	0.032

Please give the measured fraction unbound for this molecule: `Cc1cn(-c2ccc3n(c2=O)CCN(CCOc2ccc(Cl)cc2C(F)(F)F)C3=O)cn1`
0.0084

---

The following compounds are listed with their measured concentration at 1 h values.
# experiment summary: Drug uptake in rat brain at 5 mg/kg, po after 1 hr
# Type: ADME, organism-based
# Design: dose 5 mg/kg, route oral
# experimental setup: read-out: Drug uptake
# unit: ng/mL | format: bare number

molecule smiles	concentration at 1 h / ng/mL
Cc1cn(-c2ccc3n(c2=O)CCN(CCOc2ccc(Cl)cc2C(F)(F)F)C3=O)cn1	1000

Please give the measured concentration at 1 h for this compound: `Cc1cn(-c2ccc3n(c2=O)CCN(CCOc2ccc(F)cc2C(F)(F)F)C3=O)cn1`
718
